Assay: Metabolic stability in human hepatic microsome
Assay type: in vitro ADME
Conditions: microsomes, pH 7.4; human hepatic microsome, NADPH(+); read-out: CL NADPH(+)
Starred links: 1 amine or outer side, 2 acyl side, 3 side chain; linkers in the order of their positions; H or OH if unused. Positions of bridges follow the written chain, without caps; N, C: chain ends. Non-standard residues stand in square brackets, D forms with d. Residues, ends and D or L forms follow the SMILES beside them. *: point of attachment. NMeF = CN[C@@H](Cc1ccccc1)C(=O)O; NMeβAla = CN(CCC(=O)[*:2])[*:1]; NMeL = CN[C@@H](CC(C)C)C(=O)O; NMeV = CN[C@H](C(=O)O)C(C)C; NMeA = CN[C@@H](C)C(=O)O; Piperidide = C1CCN(*)CC1
MEASURED_ENDPOINT: microsomal CLint at 1 uM (µL/min/mg)
Quick reminder: number only, in µL/min/mg, skip the unit.

Looking for the measured microsomal CLint at 1 uM of CC[C@H](C)[C@@H]1NC(=O)CCN(C)C(=O)C[C@@H](C(=O)N2CCCCC2)NC(=O)[C@H](CC(C)C)N(C)C(=O)[C@H](Cc2ccccc2)NC(=O)[C@H](CC(C)C)N(C)C(=O)[C@H](CC(C)C)N(C)C(=O)[C@H](C)N(C)C(=O)[C@H](CC(C)C)N(C)C(=O)[C@H]([C@@H](C)O)NC(=O)[C@H](Cc2ccccc2)N(C)C(=O)[C@H](C)N(C)C(=O)[C@H](CC(C)C)N(C)C1=O [DP-958] ([NMeβAla]I[NMeL][NMeA][NMeF]T[NMeL][NMeA][NMeL][NMeL]F[NMeL]D-Piperidide; lactam N-13) , can you help?
31

Cool, now CC(C)C[C@H]1C(=O)N[C@@H]([C@@H](C)O)C(=O)N(C)[C@@H](Cc2ccccc2)C(=O)N(C)[C@@H](CC(C)C)C(=O)NCC(=O)N(C)[C@@H](C(C)C)C(=O)N[C@@H](Cc2ccccc2)C(=O)N[C@H](C(=O)N(C)[C@@H](Cc2ccccc2)C(=O)N(C)[C@@H](Cc2ccccc2)C(=O)N[C@@H](C)C(=O)N2CCCCC2)CC(=O)N[C@H](C(C)C)C(=O)N[C@@H](C(C)C)C(=O)N1C [DP-205] ([dV]V[NMeL]T[NMeF][NMeL]G[NMeV]FD[NMeF][NMeF]A-Piperidide; lactam N-10)
29

###

Experiment: Metabolic stability in human hepatic microsome
Assay type: in vitro ADME
Details: microsomes, pH 7.4; human hepatic microsome, NADPH(+); read-out: CL NADPH(+)
Starred links: 1 amine or outer side, 2 acyl side, 3 side chain; linkers in the order of their positions; H or OH if unused. Positions of bridges follow the written chain, without caps; N, C: chain ends. Non-standard residues stand in square brackets, D forms with d. Residues, ends and D or L forms follow the SMILES beside them. *: point of attachment. NMeF = CN[C@@H](Cc1ccccc1)C(=O)O; NMeI = CC[C@H](C)[C@H](NC)C(=O)O; NMeβAla = CN(CCC(=O)[*:2])[*:1]; NMeL = CN[C@@H](CC(C)C)C(=O)O; NMeV = CN[C@H](C(=O)O)C(C)C; Pip = O=C(O)[C@@H]1CCCCN1; NMeA = CN[C@@H](C)C(=O)O; Piperidide = C1CCN(*)CC1; dNMeA = CN[C@H](C)C(=O)O; β3hA = C[C@H](N)CC(=O)O; Sar = CNCC(=O)O; tBu = CC(C)(C)*
If the reported microsomal CLint at 1 uM equals or exceeds 80 µL/min/mg, assign Criterion met. If not, assign Criterion not met.

microsomal CLint at 1 uM >= 80 µL/min/mg for CC[C@H](C)[C@H]1C(=O)N[C@@H]([C@@H](C)O)C(=O)N[C@@H](CC(C)C)C(=O)N[C@H](C(=O)N2CCCCC2)CC(=O)N[C@H](C)C(=O)N(C)[C@@H](CC(C)C)C(=O)N(C)[C@@H](CC(C)C)C(=O)N(C)[C@@H](Cc2ccccc2)C(=O)N(C)[C@@H](CC(C)C)C(=O)N(C)[C@@H](Cc2ccccc2)C(=O)N[C@@H](C)C(=O)N1C [DP-228] ([dA][NMeL][NMeL][NMeF][NMeL][NMeF]A[NMeI]TLD-Piperidide; lactam N-11) ?
Criterion not met

Same read-out for CC[C@H](C)[C@H]1C(=O)N[C@@H](Cc2ccccc2)C(=O)N[C@H](C(=O)N2CCCCC2)CC(=O)N[C@H](C)C(=O)N[C@@H](C)C(=O)N(C)[C@@H](CC(C)C)C(=O)N(C)[C@@H](CC(C)C)C(=O)N(C)[C@@H](Cc2ccccc2)C(=O)N[C@@H]([C@@H](C)O)C(=O)N(C)[C@@H](C)C(=O)N(C)[C@@H](C(C)C)C(=O)N1C [DP-229] ([dA]A[NMeL][NMeL][NMeF]T[NMeA][NMeV][NMeI]FD-Piperidide; lactam N-11) ?
Criterion met

Item: CC(C)C[C@@H]1NC(=O)[C@H](CC(C)C)N(C)C(=O)[C@H](Cc2ccccc2)NC(=O)[C@H](C)N(C)C(=O)C[C@@H](C(=O)N2CCCCC2)NC(=O)[C@H](Cc2ccccc2)NC(=O)[C@@H]2CCCN2C(=O)[C@H]([C@@H](C)O)NC(=O)[C@H](CC(C)C)N(C)C(=O)CNC(=O)[C@@H]2CCCCN2C1=O [DP-555] ([NMeA]F[NMeL]L[Pip]G[NMeL]TPFD-Piperidide; lactam N-11)
Criterion met

// query: CC[C@H](C)[C@@H]1NC(=O)[C@H](CC(C)C)N(C)C(=O)CN(C)C(=O)[C@H]([C@@H](C)O)NC(=O)[C@H](CC(C)C)N(C)C(=O)[C@H](Cc2ccccc2)N(C)C(=O)[C@H](C)N(C)C(=O)[C@@H](C)NC(=O)C[C@@H](C(=O)N(C)[C@@H](Cc2ccccc2)C(=O)N[C@@H](C)C(=O)N2CCCCC2)NC(=O)[C@H](C(C)C)N(C)C1=O [DP-290] ([dA][NMeA][NMeF][NMeL]T[Sar][NMeL]I[NMeV]D[NMeF]A-Piperidide; lactam N-10)
Criterion not met

Same lookup for CC(C)C[C@H]1C(=O)N(C)[C@@H](C)C(=O)N(C)[C@@H](CC(C)C)C(=O)N[C@@H]([C@@H](C)O)C(=O)N(C)[C@@H](C)C(=O)N(C)[C@@H](CC(C)C)C(=O)N[C@@H](COC(C)(C)C)C(=O)N[C@@H](C)CC(=O)N[C@H](C(C)C)C(=O)N1C [DP-802] (cyclo([NMeA][NMeL]S(tBu)[β3hA][dV][NMeL][NMeA][NMeL]T)) , please.
Criterion not met

Queued: CC(C)C[C@H]1C(=O)N[C@@H](COC(C)(C)C)C(=O)N[C@H](C(=O)N2CCCCC2)CC(=O)N(C)CC(=O)N(C)[C@@H](Cc2ccccc2)C(=O)N(C)[C@@H](C)C(=O)N(C)[C@@H](CC(C)C)C(=O)N[C@@H]([C@@H](C)O)C(=O)N(C)[C@@H](C)C(=O)N1C [DP-163] ([Sar][NMeF][NMeA][NMeL]T[NMeA][NMeL]S(tBu)D-Piperidide; lactam N-9)
Criterion not met

Try this compound too: CC[C@H](C)[C@@H]1NC(=O)[C@H](Cc2ccccc2)N(C)C(=O)[C@@H](C)NC(=O)C[C@@H](C(=O)N(C)[C@@H](CC(C)C)C(=O)NCC(=O)N(C)[C@@H](CC(C)C)C(=O)N[C@@H](C)C(=O)N2CCCCC2)NC(=O)[C@H](C(C)C)NC(=O)CN(C)C(=O)[C@H]([C@@H](C)O)NC1=O [DP-568] ([dA][NMeF]IT[Sar]VD[NMeL]G[NMeL]A-Piperidide; lactam N-7)
Criterion not met

Consider next the compound CC[C@H](C)[C@@H]1NC(=O)[C@@H](C)N(C)C(=O)C[C@@H](C(=O)N2CCCCC2)NC(=O)[C@H](Cc2ccccc2)NC(=O)[C@H]([C@@H](C)O)NC(=O)[C@H](CC(C)C)NC(=O)[C@H](CC(C)C)NC(=O)CN(C)C(=O)[C@H](CC(C)C)NC(=O)[C@H](C)NC(=O)[C@H](CC(C)C)NC1=O [DP-327] ([dNMeA]ILAL[Sar]LLTFD-Piperidide; lactam N-11) in the same way.
Criterion not met

Also, CC[C@H](C)[C@H](NC(=O)[C@H](CC(C)C)N(C)C(=O)[C@H](CC(C)C)NC(=O)[C@H](C)N(C)C(=O)[C@@H]1CC(=O)N[C@@H](C)C(=O)N(C)[C@@H](CC(C)C)C(=O)N[C@@H](C(C)C)C(=O)N[C@@H](C)C(=O)N(C)[C@@H](CC(C)C)C(=O)N(C)[C@@H](CC(C)C)C(=O)N(C)[C@@H](Cc2ccccc2)C(=O)N[C@@H]([C@@H](C)O)C(=O)N(C)[C@@H](Cc2ccccc2)C(=O)N1)C(=O)N1CCCCC1 [DP-945] (A[NMeL]VA[NMeL][NMeL][NMeF]T[NMeF]D[NMeA]L[NMeL]I-Piperidide; lactam N-10) please.
Criterion not met

Similarly, CC[C@H](C)[C@@H]1NC(=O)CN(C)C(=O)[C@H]([C@@H](C)O)NC(=O)[C@H](CC(C)C)N(C)C(=O)[C@H](Cc2ccccc2)N(C)C(=O)CCN(C)C(=O)C[C@@H](C(=O)N2CCCCC2)NC(=O)[C@H](CC(C)C)N(C)C(=O)[C@H](CC(C)C)N(C)C1=O [DP-440] ([NMeβAla][NMeF][NMeL]T[Sar]I[NMeL][NMeL]D-Piperidide; lactam N-9) ?
Criterion met
